- experimentNotes: adipocyte viability effects, profiling panel, cell-based, 3T3-L1 adipocytes, calcein-AM fluorescence, 48 h, basal (AID 1163); note: test concentration not given here
- runConditions: 3T3-L1 adipocytes viability, higher = more signal
// NB: equality with 0.1 counts as Not met; only z-score strictly below is Met

CCOC(=O)C1=CC[C@@H](c2ccccc2)N(S(=O)(=O)c2ccc(C)cc2)[C@H]1c1ccccc1C
Met
COCCCNC(=O)[C@@H]1c2ccccc2C(=O)N(Cc2ccccc2Cl)[C@H]1c1ccc(CO)cc1
Met
CN1C(=O)C2C=CC(C(O)C#Cc3ccccc3)N(N3CCCCC3)C2C1=O (stereo not drawn)
Met
COCCOC(=O)N1C(=O)[C@@]2(c3cc(C#CCC(C(=O)OC)C(=O)OC)ccc31)[C@H](C(=O)N1CCN(c3ncccn3)CC1)[C@H]1C(=O)O[C@H](c3ccccc3)[C@H](c3ccccc3)N1[C@@H]2c1ccccc1OCCO
Not met
CC(C)C(=C=CC[C@@H](O)c1ccc(OCCO)cc1)C[C@@H](O)c1ccccn1
Met
CC[C@@H]1C=C(C(=O)O)[C@H](c2ccc(Br)cc2)N1S(=O)(=O)c1ccc(C)cc1
Met
COc1cc2c(cc1OC)CN(C(=O)[C@@H]1[C@H]3C(=O)O[C@H](c4ccccc4)[C@H](c4ccccc4)N3[C@H](c3ccccc3OCCO)[C@@]13C(=O)Nc1ccc(C#CCCO)cc13)CC2
Not met
CCOC(=O)C[C@H]1[C@H](OC(=O)c2ccc(C(=O)c3ccccc3)cc2)[C@@H](NC(=O)c2ccccc2)c2cc(OCCCO)ccc2N1C(=O)Cc1ccc(OC)cc1
Met
CCCCCCc1nc(-c2cc(C)c(OC)c(C)c2)cc2c1[Si](C(C)C)(C(C)C)OC2
Not met
COC(=O)[C@@]1(Cc2ccc(F)cc2)[C@H]2c3cc(C(=O)N(C)C)n(Cc4ccc(Cl)c(C(F)(F)F)c4)c3C[C@H]2CN1C(=O)c1ccccc1
Met
CCOC(=O)C1=C[C@@H](C(C)(C)C)N(S(=O)(=O)c2ccc(C)cc2)[C@H]1c1ccc(F)cc1
Not met
COc1ccc(-c2cc3c(c(-c4ccc(Oc5ccccc5)cc4)n2)[Si](C(C)C)(C(C)C)OC3)cn1
Met
C=CCN1C(=O)[C@]2(O[C@H](CCn3cc([C@H](O)c4ccccc4)nn3)[C@@H]([Si](C)(C)c3ccc(OC)cc3)[C@@H]2C)c2ccccc21
Not met
CC1(C)[C@@H]2CC(C(O)C3C=CC4C(=O)N(c5ccccc5)C(=O)C4N3Nc3ccc([N+](=O)[O-])cc3)=C[C@H]1C2 (stereo partly drawn)
Met
CCOC(=O)C[C@H]1[C@H](OC(=O)c2ccc(C(=O)c3ccccc3)cc2)[C@@H](NC(=O)c2ccc3ccccc3c2)c2cc(OCCCO)ccc2N1C(=O)Cc1ccc(OC)cc1
Not met
CC(C)OC(=O)C=C1C[C@@H](c2ccccn2)O[C@@H](c2ccccn2)O1
Met
C=C[C@H](CO)NS(=O)(=O)c1ccc(Br)cc1
Not met
CC(C)C(=C=CC[C@H](O)c1ccc(OCCO)cc1)CCO
Not met

====

- targetOrSystem: Dihydroorotate dehydrogenase (quinone), mitochondrial (Plasmodium falciparum (isolate 3D7)) (UniProt Q08210)
- Sequence (Q08210 whole entry, looked up): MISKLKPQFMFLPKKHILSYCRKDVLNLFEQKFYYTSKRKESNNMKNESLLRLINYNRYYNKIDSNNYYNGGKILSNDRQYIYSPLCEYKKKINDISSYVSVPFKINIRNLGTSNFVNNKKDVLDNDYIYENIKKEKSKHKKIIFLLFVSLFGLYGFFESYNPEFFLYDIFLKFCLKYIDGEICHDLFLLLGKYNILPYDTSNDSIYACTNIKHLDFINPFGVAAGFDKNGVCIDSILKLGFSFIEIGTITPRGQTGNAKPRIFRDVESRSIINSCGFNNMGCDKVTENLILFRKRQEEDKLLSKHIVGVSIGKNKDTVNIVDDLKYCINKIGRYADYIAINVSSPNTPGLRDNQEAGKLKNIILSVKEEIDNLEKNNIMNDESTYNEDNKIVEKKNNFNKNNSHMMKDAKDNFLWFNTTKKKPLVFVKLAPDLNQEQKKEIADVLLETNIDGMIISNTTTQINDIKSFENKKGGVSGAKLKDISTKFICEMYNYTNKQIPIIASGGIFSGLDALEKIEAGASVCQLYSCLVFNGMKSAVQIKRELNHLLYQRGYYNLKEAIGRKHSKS
- experimentNotes: PfDHODH enzyme inhibitors, primary screen, biochemical, C-terminal His tag, absorbance 600 nm (AID 1175);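 note: recombinant parasite enzyme with a five histidine tag at its C terminus; test concentration not given here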
- runConditions: DCIP absorbance 600 nm, higher = more signal, called active from +8 up or from −8 down
The source made the active and inactive calls.
Entries and their composite z-score
attributeMeasured: composite z-score

C=C[C@H](CO)NS(=O)(=O)c1ccc(Br)cc1
-1.05 (inactive)
CCCc1cc2c(n1Cc1cc(F)cc(F)c1)C(C)C1CN(C(=O)c3ccccc3)C(C)(C(=O)OC)C21 (stereo not given)
0.249 (inactive)
Cc1ccc(S[C@]2(C(=O)NCCCN(C)C)CC(=O)N(Cc3cc(C(F)(F)F)cc(C(F)(F)F)c3)[C@@H]2c2ccc(CO)cc2)cc1
-0.132 (inactive)
CC(C)OC(=O)C=C1C[C@@H](c2ccccn2)O[C@@H](c2ccccn2)O1
0.409 (inactive)
COCCOC(=O)N1C(=O)[C@@]2(c3cc(C#Cc4ccc(OC)cc4)ccc31)[C@H](c1ccc(O)cc1)N1[C@H](c3ccccc3)[C@H](c3ccccc3)OC(=O)[C@H]1[C@@H]2C(=O)N1CCc2cc(OC)c(OC)cc2C1
-0.463 (inactive)

This collection of values is drawn from PubChem BioAssay.
